What viability at 20 µM was measured for each of the following?
# method description: Cytotoxicity against mouse BV2 cells assessed as viable cells at 20 uM by MTT assay
# Format: cell-based, BV-2
# condition label: read-out: Activity
Answers are plain numbers, in %.

// known answers, use as guide
COc1cc(-c2ccccc2O)cc(OC)c1O : 118
CNC(=N)NCCC[C@H](N)C(=O)O : 100
COc1ccccc1-c1cc(OC)c(O)c(OC)c1 : 138
COc1ccc2c(oc3c(OC)c(OC)c(O)cc32)c1O : 198

Parameters: items (list). Returns: viability at 20 µM for each item.
1. COc1cc(-c2ccccc2)cc(OC)c1O
2. COc1ccc(-c2cc(OC)c(O)c(OC)c2)c(OC)c1
3. COc1cc(-c2ccccc2)cc(Oc2c(OC)cc([C@@H](O)[C@H](O)CO)cc2OC)c1O
4. COc1ccc(-c2cc(OC)c(O)c(Oc3c(OC)cc([C@@H](O)[C@H](O)CO)cc3OC)c2)c(OC)c1

[126, 129, 116, 132]
